# Test system: Malme-3M
# procedure summary: NCI tumour cell line growth inhibition, 48 h
Active and inactive are the calls of the source. Cut-off read from the data, not from the text of the source: active = GI50 up to about 1.1 µM and inactive = higher.
readout label: GI50

molecule	readout label	result
Cc1c2cc[n+](C)cc2c(C)c2c1[nH]c1ccc(OC(C)C)cc12	GI50	1.34 µM (inactive)
O=C1C2=Cc3ccccc3CCN2c2ccccc21	GI50	26.3 µM (inactive)
CC(C)CC(N)C(=O)OCN1C(=O)C2C3C=CC(C2C1=O)C1C2C(=O)N(COC(=O)C(N)CC(C)C)C(=O)C2C31 (stereo not given)	GI50	> 100 µM (inactive)
Fc1cc(C2=Nn3c(CNc4ccc(Cl)cc4)nnc3S/C2=C\c2ccc(-c3ccc(Cl)cc3)o2)c(Cl)cc1Cl	GI50	17.3 µM (inactive)
CCOP(=O)(OCC)c1cc(-c2ccccc2)ccc1N	GI50	> 100 µM (inactive)
Cc1cccc2c1[C@]13OC(C)[C@]4(C)CC5OC(=O)[C@@]1(C)[C@@H]5[C@]34C(=O)O2 (stereo not given in full)	GI50	> 100 µM (inactive)
COC(=O)C1C(O)CCC2CN3CCc4c([nH]c5cccc(OC)c45)C3CC21 (stereo not given)	GI50	> 100 µM (inactive)
C=C1CCC2C(C)(CO)C(O)CCC2(C)C1C/C=C1\C(=O)OCC1O (stereo not given)	GI50	15.6 µM (inactive)
COc1ccc2c(c1)CC1=C(O2)c2ccc(OC)cc2OC1	GI50	22.5 µM (inactive)
COC(=O)NC(=O)c1cn(C2OC(CO)C(O)C2O)c(=O)[nH]c1=O (stereo not given)	GI50	> 100 µM (inactive)

----------
# System: BT-549
# procedure summary: NCI tumour cell line growth inhibition, 48 h
Activity calls are given as the source filed them. No stated cut-off is given here; in the data, active = GI50 up to about 1.1 µM and inactive = higher.
Outcomes: active, inactive

molecule	assigned class
CC1(CCCO)CCCCCC(C)(CCCO)C1=O (stereo not drawn)	inactive
Cc1nc2nc3c(ncn3COCCO)c(O)n2c1C(c1ccccc1)(c1ccccc1)c1ccccc1	active
O=C(CC1(O)CCCCC1)OC1CCCC1	inactive

----------
Entries annotated with measured GI50
# Tested on: SK-MEL-28
# procedure summary: NCI tumour cell line growth inhibition, 48 h
Activity calls are given as the source filed them. No stated cut-off is given here; in the data, active = GI50 up to about 1.1 µM and inactive = higher.

molecule	GI50
COC(=O)c1c(O)ccc2c1c1c(n2CCc2ccccc2)C(=O)c2ccccc2C1=O	16 µM (inactive)
NCCCCc1cc(O)c2c(c1O)C(=O)c1ccccc1C2=O	17.5 µM (inactive)
Cn1c2n/c(=N\c3ccc(Cl)cc3)[n+]3ccc4ccccc4c3c-2c([O-])n1-c1ccccc1	> 100 µM (inactive)
CC(C)OC(=O)c1ccc(NCC2=CC(=O)C=CC2=O)cc1	18.3 µM (inactive)
COc1cc(/N=N\c2ccc(OC)c(S(=O)(=O)O)c2)c(C)cc1/N=N\c1ccc(/C=C/c2ccc(/N=[N+](/[O-])c3ccc(/C=C/c4ccc(/N=N/c5cc(C)c(/N=N\c6ccc(OC)c(S(=O)(=O)O)c6)cc5OC)cc4S(=O)(=O)O)c(S(=O)(=O)O)c3)cc2S(=O)(=O)O)c(S(=O)(=O)O)c1	> 100 µM (inactive)
COc1cccc(/C=C/c2ccnc3ccccc23)c1OC	> 10 µM (inactive)
CSC1C(=O)Nc2ccc3ccccc3c21 (centres undefined)	> 100 µM (inactive)
Brc1ccccc1-c1ncc(-c2ccccc2)o1	40.6 µM (inactive)
O=C(CC1C(=O)Nc2ccccc2[S+]1[O-])Nc1ccc(Cl)cc1 (centres undefined)	> 100 µM (inactive)
